Parameter: growth. Scope: all listed entries.
Test system: SK-OV-3 ovarian
Experiment: NCI-60 one-dose screen, 48 h (100 = growth as untreated, 0 = no growth, -100 = all killed)
Details: 10 µM unless noted
About 83,000 compounds went through this panel and 20% of them were active in at least one assay; those are over-represented in the sample as a whole.
Express the result in % but write the number alone.

- N#Cc1ncc(-c2ccc(C(F)(F)F)cc2)c(NC2CCCCCC2)n1: 73.6
- COc1cc(-c2nnc(-c3nc(-c4cc(OC)c(OC)c(OC)c4)n4ccccc34)o2)ccc1N: 96
- O=C1Nc2ccc(Cl)cc2/C1=C/c1cccs1: 93.6
- CCCCCCCCCCCCCCCCCC1=NC(C)(CO)CO1 (stereo unspecified): 97.8

Lab note: compound COc1cnc2c(c1)C(=O)c1c-2n(CCCN2CCNCC2)c(=O)c2cc(F)ccc12 tested on SK-OV-3 ovarian; recorded growth was -12.7

Lab note: compound COc1ccc(CNC(=O)c2c(C)n([O-])c3ccc(OC)cc3[n+]2=O)cc1 tested on SK-OV-3 ovarian; recorded growth was 126

Lab note: compound Cc1sc2nc3c4ccccc4c(NCCCN(C)C)nn3c(=O)c2c1C tested on SK-OV-3 ovarian; recorded growth was 65.7

Lab note: compound CC(=O)OC1Oc2cc(C)c(C)cc2-c2oc(=O)c(-c3ccccc3)cc21 (stereo unspecified) tested on SK-OV-3 ovarian; recorded growth was 11.6

Lab note: compound OC(c1ccccc1)C(NCc1ccccc1)c1ccccc1 (stereo unspecified) tested on SK-OV-3 ovarian; recorded growth was 101

Lab note: compound COc1cc(/C=N/NC(=O)c2ccc(C(F)(F)F)nc2Nc2ccc(Cl)cc2C)ccc1O tested on SK-OV-3 ovarian; recorded growth was 44.3

Lab note: compound CSc1nc(-c2ccc(O)cc2O)c2c(=O)[nH]c(Nc3ccc(S(=O)(=O)Nc4nc(C)cc(C)n4)cc3)nc2n1 tested on SK-OV-3 ovarian; recorded growth was 105

Lab note: compound C#C[C@]1(O)CCC2C3CCc4cc(O)ccc4C3CC[C@@]21C (stereo partly specified) tested on SK-OV-3 ovarian; recorded growth was 43

Lab note: compound Cc1ccc(-c2cc(-c3ccccc3)n(-c3ccccc3)n2)cc1 tested on SK-OV-3 ovarian; recorded growth was 105

* * *

Test system: SR leukemia
Assay: NCI-60 one-dose screen, 48 h
Conditions: 10 µM unless noted
About 83,000 compounds went through this panel and 20% of them were active in at least one assay; those are over-represented in the sample as a whole. Active and inactive are the calls of the source. How the source made its calls: active means growth percent below 10; inactive means the rest.
Outcome field: choose from active, inactive

Worked examples, 5 molecules total:
• C=CCNC(=O)/C(=C/c1cccc([N+](=O)[O-])c1)NC(=O)c1ccccc1 = inactive
• COc1cccc(/C=N\NC(=O)c2ccncc2)c1O = inactive
• O=C(O)CCNS(=O)(=O)c1ccc(-c2ccccc2)cc1 = inactive
• Cc1ccc(OCC(=O)Nc2ccc(Oc3ccccc3)cc2)c([N+](=O)[O-])n1 = inactive
• Oc1c(Cl)cc(Cl)c(Cl)c1Cc1c(O)c(Cl)cc(Cl)c1Cl = inactive

Q: Hi, sorry to bother you, what did the test record for CC[C@@H](c1ccc(O)c(O)c1)[C@@H](CC)c1ccc(O)c(O)c1 ?
Result: inactive

Q: Hi, sorry to bother you, what did the test record for CCN(CC)c1ccc(N=C2C=CC(=O)C=C2NC(C)=O)cc1 ?
Result: inactive

Q: Hi, sorry to bother you, what did the test record for CCOC(=O)C1=CCC(n2cc(C)c(=O)[nH]c2=O)O1 (stereo not drawn) ?
Result: inactive

Q: Hi, sorry to bother you, what did the test record for CCCCCN1C(=O)CCC1=O ?
Result: inactive

Q: Hi, sorry to bother you, what did the test record for c1ccc(-c2oc(-c3ccccc3)c3ccccc23)cc1 ?
Result: inactive

Q: Hi, sorry to bother you, what did the test record for O=C(NCCCl)NCCN1c2nc3ccccc3cc2Sc2cc3ccccc3nc21 ?
Result: inactive

Q: Hi, sorry to bother you, what did the test record for CCCCCCCSc1ncnc2[nH]ncc12 ?
Result: inactive

Q: Hi, sorry to bother you, what did the test record for Nc1nc(Nc2ccccc2SSc2ccccc2Nc2nc(N)nc(-c3cccc(Cl)c3)n2)nc(-c2cccc(Cl)c2)n1 ?
Result: inactive
